Each entry below carries its reported pIC50.
- Test system: MV4-11
- EXPERIMENTAL_PROTOCOL: Anti-leukemia activity against human MV4-11 cells assessed as decrease in cell proliferation incubated for 72 hrs by CCK-8 assay
- Type: functional, cell-based
- DETAILS: MV4-11, 72 h
pIC50: −log10 of the molar value.

MOLECULE: N#Cc1cccc(CN2CCc3[nH]c(NCc4ccccc4)nc(=O)c3C2)c1
ASSAYED_TARGET: MV4-11
TEST_RESULT: 6.35

Data point: O=c1nc(NCc2ccccc2)[nH]c2c1CN(Cc1ccc(F)cc1)CC2 ; pIC50 = < 5.00

Data point: O=c1nc(NCc2ccccc2)[nH]c2c1CN(Cc1cccc(F)c1)CC2 ; pIC50 = 6.08
